Biological target: recombinant human Meningioma Expressed Antigen 5 (MGEA5), also referred to as O-GlcNAcase (OGA) (Homo sapiens, UniProt O60502)
Construct: Full length OGA enzyme was purchased at OriGene (cat # TP322411); purchased OriGene TP322411
Assay: OGA biochemical assay: inhibition of FM-GlcNAc hydrolysis, fluorescence (protocol A 10 nM OGA, 1 h; protocol B 2 nM OGA, 6 h)
Details: Enzymatic protocol A (10 nM OGA, 1 h); read-out: Enzymatic hOGA; pIC50 (converted)
readout_label: IC50 (nM)

Consider the following illustrative entries.
CC(=O)Nc1ncc(S(=O)(=O)N2CCCC(c3cc4ncccc4[nH]3)C2)s1 (centres unmarked) [Compound 2]: 263
CC(=O)Nc1ncc(CN2CCCC(c3cc4ncccc4[nH]3)C2)s1 (single isomer, unassigned) [Compound 6]: 1660
CCC(=O)Nc1ncc(CN2CCCC(c3cc4ncccc4[nH]3)C2)s1 (centres unmarked): 204

P: CC(=O)Nc1ncc(CN2CCCC(c3cc4ncccc4[nH]3)C2)s1 (centres unmarked) [Compound 5]
Q: c1cnc2cc(C3CCCN(Cc4ccc5c(c4)OCCO5)C3)[nH]c2c1 (centres unmarked)
R: c1cnc2cc(C3CCCN(Cc4ccc5c(c4)OCO5)C3)[nH]c2c1 (centres unmarked)
IN: Kindly order the items shown according to IC50, from the highest value down. List each label, following the requested order.
OUT: R, Q, P
(R: 1740 nM, Q: 617 nM, P: 25.7 nM)

A: CC(=O)Nc1ncc(S(=O)(=O)N2CCCC(c3cc4ncccc4[nH]3)C2)s1 (single isomer, unassigned) [Compound 3]
B: CC(=O)Nc1ncc(S(=O)(=O)N2CCCC(c3cc4ncccc4[nH]3)C2)s1 (single isomer, unassigned) [Compound 4]
IN: API: POST /compare with A and B ; response names the item with higher IC50. State the label of the item chosen.
OUT: A

###

Biological target: OGA (Homo sapiens, UniProt O60502)
Construct: endogenous in cells; host or cells: HEK293 cells inducible for P301L mutant human Tau (2N4R)
Sequence (O60502 1-916): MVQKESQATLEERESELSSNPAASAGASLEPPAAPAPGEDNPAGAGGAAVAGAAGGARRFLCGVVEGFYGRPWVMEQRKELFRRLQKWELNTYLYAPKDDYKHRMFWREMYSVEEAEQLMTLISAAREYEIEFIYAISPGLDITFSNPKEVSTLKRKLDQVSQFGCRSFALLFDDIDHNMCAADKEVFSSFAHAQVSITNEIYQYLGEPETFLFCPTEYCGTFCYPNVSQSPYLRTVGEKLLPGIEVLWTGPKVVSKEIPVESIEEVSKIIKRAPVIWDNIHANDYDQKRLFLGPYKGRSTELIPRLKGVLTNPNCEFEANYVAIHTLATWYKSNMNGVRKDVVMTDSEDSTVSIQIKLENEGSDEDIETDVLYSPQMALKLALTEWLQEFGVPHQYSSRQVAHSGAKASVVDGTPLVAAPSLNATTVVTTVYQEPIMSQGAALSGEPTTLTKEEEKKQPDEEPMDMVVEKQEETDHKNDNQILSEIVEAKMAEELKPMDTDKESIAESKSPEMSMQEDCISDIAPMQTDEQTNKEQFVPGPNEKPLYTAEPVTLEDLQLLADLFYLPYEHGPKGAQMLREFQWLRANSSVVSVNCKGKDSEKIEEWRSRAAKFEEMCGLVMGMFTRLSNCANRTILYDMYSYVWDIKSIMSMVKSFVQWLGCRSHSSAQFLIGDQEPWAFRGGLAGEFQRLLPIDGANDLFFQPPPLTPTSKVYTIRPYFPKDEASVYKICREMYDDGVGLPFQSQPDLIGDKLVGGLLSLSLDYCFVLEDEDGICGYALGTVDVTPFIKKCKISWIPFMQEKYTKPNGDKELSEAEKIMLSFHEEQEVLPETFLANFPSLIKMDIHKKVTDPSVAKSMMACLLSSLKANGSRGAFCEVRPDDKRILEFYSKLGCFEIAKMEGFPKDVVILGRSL
Assay: OGA cellular assay: ICC detection of O-GlcNAcylated proteins in HEK293 cells inducible for P301L mutant human Tau
Assay type: cell-based
Details: 6 hours incubation, read-out: Cellular hOGA, pEC50 (converted)
readout_label: EC50 (nM)

CC(c1ccc2c(c1)OCCO2)N1CCCC(c2cc3ncccc3n2C)C1 (centres unmarked) [Compound 40]: 955

a: CC(c1ccc2c(c1)OCO2)N1CCCC(c2cc3ncccc3[nH]2)C1 (single isomer, unassigned) [Compound 31]
b: CC(=O)Nc1ncc(CN2CCC(Cc3cc4ncccc4n3C)C2)s1 (centres unmarked) [Compound 25]
IN: API: POST /compare with a and b ; response names the item with higher EC50. State the label of the item chosen.
OUT: a
(a: 195 nM, b: 9.33 nM)

I: CC(=O)Nc1ncc(CN2CCC(Cc3cc4ncccc4[nH]3)C2)s1 (centres unmarked) [Compound 24]
II: CC(=O)Nc1ncc(CN2CCCC(c3nc4ncccc4n3C)C2)s1 (centres unmarked) [Compound 20]
IN: Lab note: check whether I or II has the lower measured EC50. State the label of the item chosen.
OUT: I

a: CC(=O)Nc1ncc(CN2CCCC(c3cc4cnccc4[nH]3)C2)s1 (centres unmarked) [Compound 12]
b: CC(=O)Nc1ncc(CN2CCCC(c3cc4cccnc4[nH]3)C2)s1 (centres unmarked) [Compound 8]
IN: API: POST /compare with a and b ; response names the item with higher EC50. State the label of the item chosen.
OUT: b
(b: 148 nM, a: 17.8 nM)
